Task for the reader: assign each of the following compounds its reported inhibition at 10 µM.
System: CAKI-1
method: NCI 60 antitumor screening (single dose)
Format: cell-based
run-parameters: Homo sapiens; CAKI-1 (renal cancer), single dose 10 μM; read-out: Growth inhibition percentage (GI %)
Numbers only, in %.

entry-smiles	inhibition at 10 µM / %
C/C(=N\Nc1nc(N/N=C(\C)c2ccc([N+](=O)[O-])cc2)nc(N2CCOCC2)n1)c1ccc([N+](=O)[O-])cc1	30.8
Fc1cccc(/C=N/Nc2nc(N/N=C/c3cccc(F)c3)nc(N3CCCCC3)n2)c1	9.66
Fc1cccc(/C=N/Nc2nc(N/N=C/c3cccc(F)c3)nc(N3CCOCC3)n2)c1	11.3

Task: Form field: reported inhibition at 10 µM of Oc1ccccc1/C=N/Nc1nc(N/N=C/c2ccccc2O)nc(N2CCCCC2)n1
Result: 24.5
